Target: histaminergic H1 receptor (Homo sapiens, UniProt P35367)
Sequence (P35367 whole entry): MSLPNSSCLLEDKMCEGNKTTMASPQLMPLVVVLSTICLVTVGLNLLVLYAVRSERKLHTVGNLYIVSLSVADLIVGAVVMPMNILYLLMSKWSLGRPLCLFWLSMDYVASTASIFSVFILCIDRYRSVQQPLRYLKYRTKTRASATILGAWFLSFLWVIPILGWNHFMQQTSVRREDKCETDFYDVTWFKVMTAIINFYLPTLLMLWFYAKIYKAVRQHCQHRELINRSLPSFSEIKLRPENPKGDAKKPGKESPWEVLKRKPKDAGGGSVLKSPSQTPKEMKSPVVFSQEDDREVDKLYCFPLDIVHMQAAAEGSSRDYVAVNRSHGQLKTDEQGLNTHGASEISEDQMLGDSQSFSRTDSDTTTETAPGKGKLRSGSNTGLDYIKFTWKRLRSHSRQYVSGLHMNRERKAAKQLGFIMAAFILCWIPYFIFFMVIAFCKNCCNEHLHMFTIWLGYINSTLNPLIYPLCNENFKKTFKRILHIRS
Test: Binding assay H1 (h), [3H]pyrilamine, HEK-293 cells
Design: expressed in transfected cells; host or cells: HEK-293 cells
Details: read-out: H1 [%]
Procedure: The specific ligand binding to the receptors is defined as the difference between the total binding and the nonspecific binding determined in the presence of an excess of so unlabelled ligand. The specific Ligand binding to the receptor is defined as the difference between total and non-specific binding determined in the presence of an excess of unlabelled ligand. The compounds were tested at a concentration of 1×10^−6 M, and scintillation counting was the method of detection of ligand binding.
Each entry gets n if its inhibition at 1 µM stays under 90%, and y if its inhibition at 1 µM is 90% or above.

O=S(=O)(NCCCCN1CCN(c2nsc3ccccc23)CC1)c1ccc2c(c1)OCO2 = y
O=S(=O)(NCCN1CCC(c2noc3cc(F)ccc23)CC1)c1cccc2ccccc12 = n
Cc1cccc(S(=O)(=O)NCCCCN2CCN(c3noc4ccccc34)CC2)c1 = n
O=S(=O)(NCCCN1CCN(c2nsc3ccccc23)CC1)c1cccc(Br)c1 = y
O=S(=O)(NCCCCN1CCN(c2nsc3ccccc23)CC1)c1ccc(F)c(Cl)c1 = y

Data request: For this compound, is measured inhibition at 1 µM 90% or higher? O=S(=O)(NCCCN1CCN(c2nsc3ccccc23)CC1)c1ccc(F)c(F)c1
Data returned: y

Data request: Do the same for O=S(=O)(NCCCN1CCN(c2nsc3ccccc23)CC1)c1ccc(Cl)s1 please
Data returned: y

Data request: Query O=S(=O)(NCCCCN1CCC(c2noc3cc(F)ccc23)CC1)c1cc2ccccc2o1 next
Data returned: n

Data request: And the next one, O=c1[nH]c2cccc(N3CCN(CCCNS(=O)(=O)c4cccc(Cl)c4)CC3)c2[nH]1 ?
Data returned: n

Data request: Now the compound Cc1c(S(=O)(=O)NCCCCN2CCN(c3noc4ccccc34)CC2)sc2ccc(F)cc12
Data returned: y

Data request: # repeat for O=S(=O)(NCCCCN1CCN(c2cccc3[nH]ccc23)CC1)c1ccc(F)cc1
Data returned: n

Data request: // next record O=S(=O)(NCCCN1CCN(c2nsc3ccccc23)CC1)c1csc2ccccc12
Data returned: y

Data request: Check O=c1[nH]c2cccc(N3CCN(CCCCNS(=O)(=O)c4ccc5ccccc5c4)CC3)c2[nH]1 too.
Data returned: n

Data request: Now the compound O=S(=O)(NCCCCN1CCN(c2cccc3[nH]ccc23)CC1)c1ccc2ccccc2c1
Data returned: n

----------
target: histaminergic H1 receptor (Homo sapiens); assay: Cellular functional assay, histaminergic H1 receptor (agonism/antagonism); assay type: cell-based; settings: agonist effect, percent of control specific agonist response; compounds tested at 1×10^−6M; read-out: H1 -ag [%]
Quick reference for activation at 1 µM among some compounds
Field format: number, assumed %, no unit text.

Data request: Name the reported activation at 1 µM value associated with the compound Cc1cccc(S(=O)(=O)NCCCN2CCN(c3nsc4ccccc34)CC2)c1
Data returned: 1

Data request: Moving on to O=S(=O)(NCCCCN1CCN(c2nsc3ccccc23)CC1)c1cccc2ccccc12
Data returned: 0

Data request: // repeat for O=S(=O)(NCCCCN1CCN(c2noc3ccccc23)CC1)c1ccc(-c2ccccc2)cc1 and report
Data returned: 0

Data request: # repeat for O=S(=O)(NCCCCN1CCC(c2noc3cc(F)ccc23)CC1)c1ccc2cc(Cl)ccc2c1
Data returned: 3

Data request: Same read-out for O=S(=O)(NCCCCN1CCN(c2noc3ccccc23)CC1)c1ccc2cc(Cl)ccc2c1 ?
Data returned: 0

Data request: Please give the result for O=S(=O)(NCCCCN1CCC(c2noc3cc(F)ccc23)CC1)c1cc2ccc(Cl)cc2s1 too.
Data returned: 5

----------
Target: serotoninergic 5-HT6 receptor (Homo sapiens)
Sequence (P50406 whole entry): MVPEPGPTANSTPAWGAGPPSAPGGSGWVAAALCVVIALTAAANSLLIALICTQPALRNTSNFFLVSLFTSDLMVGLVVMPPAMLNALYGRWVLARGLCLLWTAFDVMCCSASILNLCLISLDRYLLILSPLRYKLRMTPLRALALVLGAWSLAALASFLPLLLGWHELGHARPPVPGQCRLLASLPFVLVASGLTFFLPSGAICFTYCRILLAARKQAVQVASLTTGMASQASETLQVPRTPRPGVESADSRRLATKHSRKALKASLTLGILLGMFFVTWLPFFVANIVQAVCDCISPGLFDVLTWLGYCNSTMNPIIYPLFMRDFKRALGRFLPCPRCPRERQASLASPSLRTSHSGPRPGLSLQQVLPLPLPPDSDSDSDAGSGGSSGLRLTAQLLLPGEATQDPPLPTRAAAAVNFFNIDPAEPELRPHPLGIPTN
Experiment: Binding assay 5-HT6 (h), [3H]LSD, CHO cells
Design: expressed in transfected cells; host or cells: CHO cells
Conditions: read-out: 5-HT6
Experimental: The specific ligand binding to the receptors is defined as the difference between the total binding and the nonspecific binding determined in the presence of an excess of so unlabelled ligand. The specific Ligand binding to the receptor is defined as the difference between total and non-specific binding determined in the presence of an excess of unlabelled ligand. The compounds were tested at a concentration of 1×10^−6 M, and scintillation counting was the method of detection of ligand binding.
Listing: inhibition at 1 µM of selected compounds
Your answer should be a plain number; it is taken to be in %.

Sample answers from the record:
O=S(=O)(NCCCN1CCN(c2nsc3ccccc23)CC1)c1ccc(Cl)cc1 = 73
Cc1c(S(=O)(=O)NCCCN2CCN(c3nsc4ccccc34)CC2)sc2ccc(F)cc12 = 95
O=S(=O)(NCCCN1CCC(c2noc3cc(F)ccc23)CC1)c1cccc2scnc12 = 89

Data request: Endpoint output: inhibition at 1 µM of O=S(=O)(NCCCCN1CCN(c2nsc3ccccc23)CC1)c1ccc(OC(F)(F)F)cc1 . Value?
Data returned: 67

Data request: One more compound: O=S(=O)(NCCCCN1CCC(c2noc3cc(F)ccc23)CC1)c1ccc(-c2ccccc2)cc1
Data returned: 95

Data request: Next up: O=S(=O)(NCCCN1CCN(c2nsc3ccccc23)CC1)c1c[nH]c2ncccc12
Data returned: 70

Data request: For O=S(=O)(NCCCCN1CCC(c2noc3cc(F)ccc23)CC1)c1cc2ccccc2o1 then?
Data returned: 93

Data request: # repeat for O=S(=O)(NCCCCN1CCC(c2noc3cc(F)ccc23)CC1)c1ccc2cn[nH]c2c1
Data returned: 87

Data request: Thanks! And O=S(=O)(NCCCCN1CCC(c2noc3cc(F)ccc23)CC1)c1cccc(F)c1 ?
Data returned: 75

----------
Biological target: serotoninergic 5-HT2A receptor (Homo sapiens)
Sequence (P28223 whole entry): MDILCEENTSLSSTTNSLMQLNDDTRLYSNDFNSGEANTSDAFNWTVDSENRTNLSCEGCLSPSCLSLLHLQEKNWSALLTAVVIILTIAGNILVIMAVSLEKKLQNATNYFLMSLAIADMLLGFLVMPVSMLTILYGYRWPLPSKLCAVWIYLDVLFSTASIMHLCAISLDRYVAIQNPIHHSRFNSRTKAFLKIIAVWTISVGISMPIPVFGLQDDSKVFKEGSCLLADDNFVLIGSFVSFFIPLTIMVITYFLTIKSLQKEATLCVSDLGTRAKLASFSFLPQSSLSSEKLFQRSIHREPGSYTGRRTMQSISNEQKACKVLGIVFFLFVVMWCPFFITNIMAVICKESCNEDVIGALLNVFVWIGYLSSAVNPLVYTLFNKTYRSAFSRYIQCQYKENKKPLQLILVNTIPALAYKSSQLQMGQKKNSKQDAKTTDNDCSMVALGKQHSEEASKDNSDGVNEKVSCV
Assay: Cellular functional assay, serotoninergic 5-HT2A receptor (agonism/antagonism)
Assay type: cell-based
Details: read-out: 5-HT2A -ag [%]
Method: […]. The compounds were tested at the concentration of 1×10^−6M. […]
The entries below are paired with their reported activation at 1 µM.
Please reply with the bare figure in % and do not write the unit itself.

Study these solved cases before continuing.
Cc1c(S(=O)(=O)NCCCCN2CCN(c3nsc4ccccc34)CC2)sc2ccc(F)cc12 = -2
O=S(=O)(NCCCCN1CCN(c2cccc3[nH]ccc23)CC1)c1ccc2ccccc2c1 = -1
Cc1c(S(=O)(=O)NCCCCN2CCC(c3noc4cc(F)ccc34)CC2)sc2ccc(F)cc12 = -1
O=S(=O)(NCCCN1CCC(c2noc3cc(F)ccc23)CC1)c1ccc(F)c(Cl)c1 = -1
O=S(=O)(NCCCCN1CCN(c2cccc3[nH]ccc23)CC1)c1cc2ccccc2s1 = -1

Data request: Lookup: activation at 1 µM / serotoninergic 5-HT2A receptor (Homo sapiens) / Cc1cccc(S(=O)(=O)NCCCN2CCN(c3nsc4ccccc34)CC2)c1
Data returned: 0

Data request: Would you mind doing O=S(=O)(NCCCCN1CCC(c2noc3cc(F)ccc23)CC1)c1ccc2ccccc2c1 as well?
Data returned: -1

Data request: Same question for N#Cc1cccc(S(=O)(=O)NCCCN2CCC(c3noc4cc(F)ccc34)CC2)c1 please.
Data returned: -1

Data request: What do you have for O=S(=O)(NCCCCN1CCC(c2noc3cc(F)ccc23)CC1)c1csc2ccccc12 ?
Data returned: -3

Data request: Please give the result for O=S(=O)(NCCCCN1CCN(c2noc3ccccc23)CC1)c1cc2ccc(Cl)cc2s1 too.
Data returned: -2

Data request: And what about the molecule O=S(=O)(NCCCCN1CCN(c2nsc3ccccc23)CC1)c1csc2ccccc12 ?
Data returned: -3

Data request: Repeat with O=S(=O)(NCCCCN1CCN(c2noc3ccccc23)CC1)c1ccc2ccccc2c1
Data returned: 1

Data request: Ok, now O=c1[nH]c2ccc(S(=O)(=O)NCCCCN3CCN(c4noc5ccccc45)CC3)cc2o1
Data returned: -1

Data request: Also check O=S(=O)(NCCCCN1CCN(c2nsc3ccccc23)CC1)c1cc2ccc(Cl)cc2s1
Data returned: -2

Data request: Item: O=S(=O)(NCCCCN1CCC(c2noc3cc(F)ccc23)CC1)c1ccc(Br)cc1
Data returned: -1

Data request: And what about the molecule O=S(=O)(NCCCN1CCC(c2noc3cc(F)ccc23)CC1)c1ccc2cc(Cl)ccc2c1 ?
Data returned: -2

Data request: Then this molecule: O=S(=O)(NCCCCN1CCN(c2cccc3[nH]ccc23)CC1)c1ccc2cc(Cl)ccc2c1
Data returned: -1

----------
test system: sigma σ receptor; assay: Binding assay σ (non-selective), [3H]DTG, rat cerebral cortex; conditions: percent inhibition of control specific binding; compounds tested at 1×10^−6 M
experimental endpoint: σ [%] (%)
// return numeric value only (unit: %, not printed)

These solved cases illustrate the format of a correct answer.
O=S(=O)(NCCCN1CCN(c2nsc3ccccc23)CC1)c1ccc(C(F)(F)F)cc1 = 57
O=S(=O)(NCCCN1CCN(c2nsc3ccccc23)CC1)c1ccc2ccccc2c1 = 59
O=S(=O)(NCCCCN1CCN(c2nsc3ccccc23)CC1)c1cc2ccccc2s1 = 69
O=c1[nH]c2ccc(S(=O)(=O)NCCN3CCN(c4nsc5ccccc45)CC3)cc2o1 = 4
CC(C)(C)c1ccc(S(=O)(=O)NCCCCN2CCC(c3noc4cc(F)ccc34)CC2)cc1 = 73

Data request: Entry under review: O=S(=O)(NCCCCN1CCN(c2cccc3[nH]ccc23)CC1)c1cc2ccc(Cl)cc2s1 . Reported σ [%]?
Data returned: 96
